System: MCF7 cells
protocol: Cell proliferation assay (ATPlite), MCF-7
Format: cell-based, human
stated.conditions: Homo sapiens, inhibition of cell proliferation, 72 h
pEC50: −log10 of the molar value.
reported.endpoint: pEC50

Answered cases to consult:
compound	reported.endpoint	result
Cc1ccc(-c2ccc(C#N)s2)cc1NS(=O)(=O)c1ccc(C#N)cc1 [Example 116]	pEC50	6.00 to 6.30
COc1ccc(S(=O)(=O)Nc2cc(-c3csc(C#N)c3)ccc2C)cc1 [Example 73]	pEC50	> 6.30
COc1ccc(S(=O)(=O)Nc2cc(-n3cc(C)cc3C)ccc2C)cc1 [Example 40]	pEC50	5.00 to 6.00
Cc1cc(S(=O)(=O)Nc2cc(-c3ccc(C#N)s3)ccc2C)ccc1F [Example 112]	pEC50	> 6.30

Please find the next compound below.
Need pEC50 of Cc1ccc(S(=O)(=O)Nc2cc(-c3cc(C)ccn3)ccc2C)cc1 [Example 31] , thanks.
5.00 to 6.00

###

Here the recorded pEC50 is given for each entry.
System: MCF7 cells
protocol: Cell proliferation assay (ATPlite), MCF-7
Type: cell-based, human
stated.conditions: Homo sapiens, inhibition of cell proliferation, 72 h
pEC50: −log10 of the molar value.

Use the examples below as a reference point.
Cc1ccc(S(=O)(=O)Nc2cc(-c3ccc(C#N)c(C)c3)ccc2C)cc1 > 6.30
Cc1ccc(S(=O)(=O)Nc2cc(-c3nnn(C)n3)ccc2C)cc1 5.00 to 6.00
Cc1ccc(-c2ccc(C#N)s2)cc1NS(=O)(=O)c1ccc(Cl)cc1 > 6.30
Cc1ccc(-c2csc(C#N)c2)cc1NS(=O)(=O)c1ccc([N+](=O)[O-])cc1 5.00 to 6.00
Cc1ccc(S(=O)(=O)Nc2cc(-c3ncc(C#N)cn3)ccc2C)cc1 6.00 to 6.30

What value of pEC50 has been reported for the following compound? COc1ccc(S(=O)(=O)Nc2cc(-c3ccc(OC(F)(F)F)cc3)ccc2C)cc1
5.00 to 6.00

Entry Cc1ccc(S(=O)(=O)Nc2cc(-c3c(C)noc3C)ccc2C)cc1 : reported pEC50 = ?
> 6.30

// returns reported pEC50 for input Cc1ccc(S(=O)(=O)Nc2cc(-n3cnnn3)ccc2C)cc1
5.00 to 6.00

Request the reported pEC50 associated with Cc1ccc(S(=O)(=O)Nc2cc(-c3ccoc3)ccc2C)cc1
> 6.30

Could you tell me which pEC50 is on file for Cc1ccc(S(=O)(=O)Nc2cc(-c3ccc(C#N)cc3)ccc2C)cc1 ?
> 6.30

Bench note: what pEC50 did Cc1ccc(S(=O)(=O)Nc2cc(-c3sc(C)nc3C)ccc2C)cc1 show?
> 6.30

Need pEC50 of COc1ccc(S(=O)(=O)Nc2cc(-c3ccc(C#N)s3)ccc2C)cc1F , thanks.
> 6.30

Quick one: pEC50 of Cc1ccc(S(=O)(=O)Nc2cc(-n3cccc3)ccc2C)cc1 ?
> 6.30

Form field: reported pEC50 of Cc1ccc(-c2ccc(C#N)cc2)cc1NS(=O)(=O)c1ccc(Cl)cc1
> 6.30

Could you share which pEC50 value was measured for COc1nccc(-c2ccc(C)c(NS(=O)(=O)c3ccc(C)cc3)c2)n1 ?
5.00 to 6.00

I'd like to know its pEC50. The compound in question is Cc1ccc(S(=O)(=O)Nc2cc(-c3nnn[nH]3)ccc2C)cc1
5.00 to 6.00

Request the reported pEC50 associated with Cc1ccc(S(=O)(=O)Nc2cc(-c3ccc(C)s3)ccc2C)cc1
> 6.30

For the compound shown here, Cc1ccc(S(=O)(=O)Nc2cc(-c3sccc3C)ccc2C)cc1 , give the reported pEC50.
> 6.30

Would you mind telling me what pEC50 value was observed for COc1ccc(S(=O)(=O)Nc2cc(-c3ccc(C#N)cc3)ccc2C)cc1F ?
> 6.30

// lookup pEC50 for Cc1ccc(-c2ccc(C#N)s2)cc1NS(=O)(=O)c1ccc(F)cc1
6.00 to 6.30

Quick one: pEC50 of COc1ccc(S(=O)(=O)Nc2cc(-n3cccc3C)ccc2C)cc1 ?
> 6.30

Which pEC50 value belongs to COc1ccc(S(=O)(=O)Nc2cc(-c3ccc(C#N)cc3)ccc2C)cc1 ?
> 6.30
